Values were extracted from the supplement of paper PMC11061612.

Please provide measured combination Emax for the entries that follow.
- Test system: OE21 (Esophageal Squamous Cell Carcinoma)
- experiment.description: combination Emax (second highest fraction inhibited in the dose matrix, 72 h); higher = more inhibition; extreme values may be limits of the assay
Just the number, please, no unit attached.

Can you look up the measured combination Emax of Cc1c2c(nn1C)CSCc1cc(n(C)n1)CSc1cc(c3ccccc3c1)OCCCc1c(C(=O)O)n(C)c3c-2c(Cl)ccc13 [AZD5991] + Cn1cnc2c(F)c(Nc3ccc(Br)cc3Cl)c(C(=O)NOCCO)cc21 [Selumetinib] (first compound max 1 µM, 7x7, partner max 3 µM) for me?
0.469

Can you look up the measured combination Emax of Cn1cnc2c(F)c(Nc3ccc(Br)cc3Cl)c(C(=O)NOCCO)cc21 [Selumetinib] + C=CCn1c(=O)c2cnc(Nc3ccc(N4CCN(C)CC4)cc3)nc2n1-c1cccc(C(C)(C)O)n1 [AZD1775] (first compound max 10 µM, partner max 1 µM) for me?
0.683

Can you look up the measured combination Emax of COc1nnc2ccc(N3CCC(c4ccc(OCCN5CCN(C)C(=O)[C@H]5C)cc4)CC3)nn12 [AZD5153] + CN(CC[C@H](CSC1=CC=CC=C1)NC2=C(C=C(C=C2)S(=O)(=O)NC(=O)C3=CC=C(C=C3)N4CCC(CC4)[C@H](C5=CC=CC=C5C6=CC=C(C=C6)Cl)O)S(=O)(=O)C(F)(F)F)CCO [AZD4320] (first compound max 1 µM, 7x7, partner max 1 µM) for me?
0.739

====

Please provide measured combination Emax for the entries that follow.
- System: KS-1 (Glioblastoma)
- experiment.description: combination Emax (second highest fraction inhibited in the dose matrix, 72 h); higher = more inhibition; extreme values may be limits of the assay

Can you look up the measured combination Emax of Cc1c2c(nn1C)CSCc1cc(n(C)n1)CSc1cc(c3ccccc3c1)OCCCc1c(C(=O)O)n(C)c3c-2c(Cl)ccc13 [AZD5991] + CC1(C)CCC(CN2CCN(c3ccc(C(=O)NS(=O)(=O)c4ccc(NCC5CCOCC5)c([N+](=O)[O-])c4)c(Oc4cnc5[nH]ccc5c4)c3)CC2)=C(c2ccc(Cl)cc2)C1 [Venetoclax] (first compound max 1 µM, 7x7, partner max 1 µM) for me?
0.146

Can you look up the measured combination Emax of CCN(CCO)CCCOc1ccc2c(Nc3cc(CC(=O)Nc4cccc(F)c4)[nH]n3)ncnc2c1 [AZD2811] + C=CCn1c(=O)c2cnc(Nc3ccc(N4CCN(C)CC4)cc3)nc2n1-c1cccc(C(C)(C)O)n1 [AZD1775] (first compound max 1 µM, partner max 1 µM) for me?
0.481

Can you look up the measured combination Emax of CC1(C)CCC(CN2CCN(c3ccc(C(=O)NS(=O)(=O)c4ccc(NCC5CCOCC5)c([N+](=O)[O-])c4)c(Oc4cnc5[nH]ccc5c4)c3)CC2)=C(c2ccc(Cl)cc2)C1 [Venetoclax] + CCN(CCO)CCCOc1ccc2c(Nc3cc(CC(=O)Nc4cccc(F)c4)[nH]n3)ncnc2c1 [AZD2811] (first compound max 1 µM, 7x7, partner max 1 µM) for me?
0.341

Can you look up the measured combination Emax of NC1(C(=O)N[C@@H](CCO)c2ccc(Cl)cc2)CCN(c2ncnc3[nH]ccc23)CC1 [Capivasertib] + COc1nnc2ccc(N3CCC(c4ccc(OCCN5CCN(C)C(=O)[C@H]5C)cc4)CC3)nn12 [AZD5153] (first compound max 10 µM, 7x7, partner max 1 µM) for me?
0.755

Can you look up the measured combination Emax of C[C@@H]1COCCN1c1cc(C2([S@](C)(=N)=O)CC2)nc(-c2ccnc3[nH]ccc23)n1 [AZD6738] + C1CC(C1)(C(=O)[O-])C(=O)[O-].N.N.[Pt+2] [Carboplatin] (first compound max 10 µM, 7x7, partner max 10 µM) for me?
0.431

Can you look up the measured combination Emax of CN(CCO)CC[C@H](CSc1ccccc1)Nc1ccc(S(=O)(=O)NC(=O)c2ccc(N3CCC([C@@H](O)c4ccccc4-c4ccc(Cl)cc4)CC3)cc2)cc1S(=O)(=O)C(F)(F)F [AZD4320] + Cc1cc2ncnn2cc1Nc1ncc2c(n1)n(C1CCOCC1)c(=O)n2C [AZD7648] (first compound max 1 µM, 7x7, partner max 10 µM) for me?
0.319

Can you look up the measured combination Emax of C=CCn1c(=O)c2cnc(Nc3ccc(N4CCN(C)CC4)cc3)nc2n1-c1cccc(C(C)(C)O)n1 [AZD1775] + Nc1ccn([C@@H]2O[C@H](CO)[C@@H](O)C2(F)F)c(=O)n1 [Gemcitabine] (first compound max 1 µM, partner max 0.3 µM) for me?
0.5

====

- System: KMRC-20 (Kidney Carcinoma)
- experiment.description: combination Emax (second highest fraction inhibited in the dose matrix, 72 h); higher = more inhibition; extreme values may be limits of the assay
Category | rule: reported combination Emax within range, see interval 1 = under 0.4, interval 2 = from 0.4 up to 0.6, interval 3 = 0.6 and over

Class (by measured combination Emax) for C=CCn1c(=O)c2cnc(Nc3ccc(N4CCN(C)CC4)cc3)nc2n1-c1cccc(C(C)(C)O)n1 [AZD1775] + O=C(c1cc(Cc2n[nH]c(=O)c3ccccc23)ccc1F)N1CCN(C(=O)C2CC2)CC1 [Olaparib] (first compound max 1 µM, partner max 10 µM)
interval 2

Class (by measured combination Emax) for Cn1cnc2c(F)c(Nc3ccc(Br)cc3Cl)c(C(=O)NOCCO)cc21 [Selumetinib] + CC(C)n1c(=O)n(C)c2cnc3cc(F)c(-c4ccc(OCCCN5CCCCC5)nc4)cc3c21 [AZD1390] (first compound max 10 µM, 7x7, partner max 0.3 µM)
interval 1

Class (by measured combination Emax) for COc1nnc2ccc(N3CCC(c4ccc(OCCN5CCN(C)C(=O)[C@H]5C)cc4)CC3)nn12 [AZD5153] + Cc1c2c(nn1C)CSCc1cc(n(C)n1)CSc1cc(c3ccccc3c1)OCCCc1c(C(=O)O)n(C)c3c-2c(Cl)ccc13 [AZD5991] (first compound max 1 µM, 7x7, partner max 1 µM)
interval 1

Class (by measured combination Emax) for Cc1cc2ncnn2cc1Nc1ncc2c(n1)n(C1CCOCC1)c(=O)n2C [AZD7648] + CCN(CCO)CCCOc1ccc2c(Nc3cc(CC(=O)Nc4cccc(F)c4)[nH]n3)ncnc2c1 [AZD2811] (first compound max 10 µM, 7x7, partner max 1 µM)
interval 1

Class (by measured combination Emax) for CN(C)CCCOc1ccc(-c2ccc3ncc4c(c3c2)n(C2CCOCC2)c(=O)n4C)cn1 [AZD0156] + C[C@@H]1COCCN1C2=NC(=NC(=C2)C3(CC3)[S@](=N)(=O)C)C4=C5C=CNC5=NC=C4 [AZD6738] (first compound max 1 µM, 7x7, partner max 10 µM)
interval 3

Class (by measured combination Emax) for CCN(CCO)CCCOc1ccc2c(Nc3cc(CC(=O)Nc4cccc(F)c4)[nH]n3)ncnc2c1 [AZD2811] + O=C(c1cc(Cc2n[nH]c(=O)c3ccccc23)ccc1F)N1CCN(C(=O)C2CC2)CC1 [Olaparib] (first compound max 1 µM, 7x7, partner max 10 µM)
interval 1

Class (by measured combination Emax) for Cc1c2c(nn1C)CSCc1cc(n(C)n1)CSc1cc(c3ccccc3c1)OCCCc1c(C(=O)O)n(C)c3c-2c(Cl)ccc13 [AZD5991] + Cc1cc2ncnn2cc1Nc1ncc2c(n1)n(C1CCOCC1)c(=O)n2C [AZD7648] (first compound max 1 µM, 7x7, partner max 10 µM)
interval 1

Class (by measured combination Emax) for CCc1c2c(nc3ccc(O)cc13)-c1cc3c(c(=O)n1C2)COC(=O)[C@]3(O)CC [SN-38] + CN(C)CCCOc1ccc(-c2ccc3ncc4c(c3c2)n(C2CCOCC2)c(=O)n4C)cn1 [AZD0156] (first compound max 0.3 µM, 7x7, partner max 1 µM)
interval 3

Class (by measured combination Emax) for COc1cccc2c1C(=O)c1c(O)c3c(c(O)c1C2=O)C[C@@](O)(C(=O)CO)C[C@@H]3O[C@H]1C[C@H](N)[C@H](O)[C@H](C)O1 [Doxorubicin] + Cc1cc2ncnn2cc1Nc1ncc2c(n1)n(C1CCOCC1)c(=O)n2C [AZD7648] (first compound max 1 µM, 7x7, partner max 10 µM)
interval 2

Class (by measured combination Emax) for COc1nnc2ccc(N3CCC(c4ccc(OCCN5CCN(C)C(=O)[C@H]5C)cc4)CC3)nn12 [AZD5153] + Cn1cnc2c(F)c(Nc3ccc(Br)cc3Cl)c(C(=O)NOCCO)cc21 [Selumetinib] (first compound max 1 µM, 7x7, partner max 10 µM)
interval 2

Class (by measured combination Emax) for COc1nnc2ccc(N3CCC(c4ccc(OCCN5CCN(C)C(=O)[C@H]5C)cc4)CC3)nn12 [AZD5153] + CCN(CCO)CCCOc1ccc2c(Nc3cc(CC(=O)Nc4cccc(F)c4)[nH]n3)ncnc2c1 [AZD2811] (first compound max 1 µM, 7x7, partner max 1 µM)
interval 2

Class (by measured combination Emax) for Cc1c2c(nn1C)CSCc1cc(n(C)n1)CSc1cc(c3ccccc3c1)OCCCc1c(C(=O)O)n(C)c3c-2c(Cl)ccc13 [AZD5991] + C=CCn1c(=O)c2cnc(Nc3ccc(N4CCN(C)CC4)cc3)nc2n1-c1cccc(C(C)(C)O)n1 [AZD1775] (first compound max 1 µM, partner max 1 µM)
interval 3

Class (by measured combination Emax) for Cc1nc(Nc2ncc(C(=O)Nc3c(C)cccc3Cl)s2)cc(N2CCN(CCO)CC2)n1 [Dasatinib] + CC(=O)Nc1cccc(-n2c(=O)n(C3CC3)c(=O)c3c(Nc4ccc(I)cc4F)n(C)c(=O)c(C)c32)c1 [Trametinib] (first compound max 2 µM, 7x7, partner max 1 µM)
interval 2
